Measured values drawn from patent US7704982B2 for this set.

- assay.target: full-length recombinant rat vitamin D receptor (Rattus norvegicus)
- Construct: Full-length recombinant rat receptor was expressed in E. coli; histidine tag (C)
- Sequence (P13053 whole entry): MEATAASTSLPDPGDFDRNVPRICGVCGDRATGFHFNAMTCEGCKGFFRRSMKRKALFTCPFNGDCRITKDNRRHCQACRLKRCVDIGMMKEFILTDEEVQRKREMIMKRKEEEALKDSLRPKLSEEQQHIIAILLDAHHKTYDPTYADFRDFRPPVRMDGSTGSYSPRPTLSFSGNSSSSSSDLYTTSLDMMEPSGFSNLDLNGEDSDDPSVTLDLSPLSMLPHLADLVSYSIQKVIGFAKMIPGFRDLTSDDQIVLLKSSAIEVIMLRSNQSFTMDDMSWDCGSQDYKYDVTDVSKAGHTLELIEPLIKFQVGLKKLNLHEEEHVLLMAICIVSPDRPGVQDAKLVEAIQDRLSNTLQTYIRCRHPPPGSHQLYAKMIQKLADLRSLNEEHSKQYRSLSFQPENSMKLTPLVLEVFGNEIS
- method: Vitamin D receptor competitive binding with [3H]-1,25(OH)2D3
- test.context: full-length recombinant rat VDR; FIG. 1; read-out: Ki, competition with [3H]-1,25(OH)2D3 for binding to the vitamin D receptor
measured.endpoint: pKi
Answers are plain numbers, as −log10 of the molar value.

Quick one: give measured pKi for C=C1[C@H](O)CC(=C/C=C2\CCC[C@]3(C)C(=C(C)C)CCC23)C[C@H]1O (stereo partly shown) [VIT-I]
9.72

----------
- System: Human promyelocytic leukemia (HL60) cells
- method: HL-60 cell differentiation (nitro blue tetrazolium reduction)
- Type: cell-based
- test.context: Homo sapiens, HL-60, 96 h, 4 days, FIG. 2
measured.endpoint: EC50 (nM)
Answers are plain numbers, in nM.

Please report EC50 with Human promyelocytic leukemia (HL60) cells for item C=C1[C@H](O)CC(=C/C=C2\CCC[C@]3(C)C(=C(C)C)CCC23)C[C@H]1O (stereo partly shown) .
13
